The measurements presented in this section are drawn from patent US11807634B2.

# System: CYP3A4
# protocol description: Human CYP 3A4 induction assay (mRNA, cryopreserved human hepatocytes)
# Type: in vitro ADME
# test conditions: human hepatocytes, 10 uM test compound, 72 hours, mRNA, percent of control (rifampin positive control)
CYP3A4 mRNA Induct Hu 10 uM POC overview
Answer with a number only, understood to be in %.

COc1cc([C@@H]2C[C@H]2C(F)(F)F)c(F)cc1-n1c(=O)ccc2cc(S(=O)(=O)Nc3cccnn3)ccc21 (atropisomer, axis not shown; (P)) [Example 16] ... 27.11

input: Please report the recorded CYP3A4 mRNA Induct Hu 10 uM POC for COc1cc([C@H]2C[C@@H]2C(F)(F)F)c(F)cc1-n1c(=O)ccc2cc(S(=O)(=O)Nc3cccnn3)ccc21 (atropisomer, axis not shown; (P)) [Example 17] .
output: 37.04

input: Please report the recorded CYP3A4 mRNA Induct Hu 10 uM POC for COc1cc([C@@H]2C[C@H]2C(F)(F)F)c(Cl)cc1-n1c(=O)ccc2cc(S(=O)(=O)Nc3cccnn3)ccc21 (atropisomer, axis not shown; (P)) [Example 14] .
output: 46.59

input: Please report the recorded CYP3A4 mRNA Induct Hu 10 uM POC for COc1cc([C@H]2C[C@@H]2C(F)(F)F)ccc1-n1c(=O)ccc2cc(S(=O)(=O)Nc3ccon3)c(F)cc21 (atropisomer, axis not shown; (P)) [Example 48] .
output: 54.02

input: Please report the recorded CYP3A4 mRNA Induct Hu 10 uM POC for COc1cc([C@H]2C[C@@H]2C(F)(F)F)c(C)cc1-n1c(=O)ccc2cc(S(=O)(=O)Nc3ccon3)ccc21 (single isomer, unassigned) [Example 27] .
output: 64.14
